# targetEntity: Cytochrome P450 1A2 (Homo sapiens)
# methodDescription: Cytochrome panel assay with activity outcomes
# conditionLabel: recombinant CYP, pro-luciferin dealkylation, luminescence, p450-cyp1a2; series mostly up to 57.1 µM
Hit rate of the full screen: of about 16,000 compounds, about 5,700 (36%) were called active. About 24% were inconclusive and are not listed. This is one part of the list.
recordedEndpoint: AC50

compound=O=C(NCCc1ccccn1)c1cc(C(=O)C2CCCCC2)c[nH]1 resultvalue="14.1 µM (active)"
compound=Cc1ccc(Cl)cc1N1CCN(S(=O)(=O)c2ccc3c(c2)OCCO3)CC1 resultvalue=inactive
compound=CNC(=O)[C@@H]1O[C@@H](n2cnc3c(NCc4ccc(N)cc4)ncnc32)[C@@H](O)[C@H]1O resultvalue=inactive
compound=Cc1cc(C)n(C(=O)c2cc3c(s2)CCCC3)n1 resultvalue="0.282 µM (active)"
compound="CC1CN(C(=O)c2cc3c(s2)CCC3)CC(C)O1 (stereo unspecified)" resultvalue="12.6 µM (active)"

Input line: Please give measured AC50 of the following entry: COc1ccccc1CNc1ccnc(-c2cccc(C#N)c2)n1
Output line: 0.794 µM (active)

Input line: Please give measured AC50 of the following entry: Cc1ccc(CC(=O)N2CC(C)OC(C)C2)cc1 (stereo unspecified)
Output line: inactive

Input line: Please give measured AC50 of the following entry: Cc1ccc(C(=O)c2c[nH]c(C(=O)NCCCN3CCOCC3)c2)cc1
Output line: inactive

Input line: Please give measured AC50 of the following entry: CC1CN(C(=O)CN2C(=O)NC3(CCCCCC3)C2=O)CC(C)O1 (stereo unspecified)
Output line: inactive

Input line: Please give measured AC50 of the following entry: COC(=O)[C@@]1(Cc2ccc(F)cc2)[C@H]2c3cc(C(=O)N4CCCC4)n(Cc4ccc(OC(F)(F)F)cc4)c3C[C@H]2CN1C(=O)c1ccccc1
Output line: inactive

Input line: Please give measured AC50 of the following entry: O=S(=O)(Nc1cccnc1Cl)c1ccc2c(c1)OCCO2
Output line: inactive

----------
# targetEntity: Cytochrome P450 1A2 (Homo sapiens) (UniProt P05177)
# Sequence (P05177 whole entry, looked up): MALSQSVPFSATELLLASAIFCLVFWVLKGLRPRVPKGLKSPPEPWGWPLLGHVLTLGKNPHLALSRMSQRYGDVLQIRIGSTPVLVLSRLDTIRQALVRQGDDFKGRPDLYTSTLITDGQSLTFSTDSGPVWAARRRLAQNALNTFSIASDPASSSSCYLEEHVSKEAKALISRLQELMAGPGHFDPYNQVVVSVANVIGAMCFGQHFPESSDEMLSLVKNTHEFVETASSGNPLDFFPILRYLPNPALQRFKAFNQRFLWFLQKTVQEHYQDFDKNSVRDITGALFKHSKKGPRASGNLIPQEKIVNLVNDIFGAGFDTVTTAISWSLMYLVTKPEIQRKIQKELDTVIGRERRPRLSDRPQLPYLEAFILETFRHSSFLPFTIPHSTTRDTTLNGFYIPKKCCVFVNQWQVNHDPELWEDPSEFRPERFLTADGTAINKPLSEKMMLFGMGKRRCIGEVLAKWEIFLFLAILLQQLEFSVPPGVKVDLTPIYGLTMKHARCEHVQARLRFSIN
# methodDescription: Cytochrome panel assay with activity outcomes
# conditionLabel: recombinant CYP, pro-luciferin dealkylation, luminescence, p450-cyp1a2; series mostly up to 57.1 µM
# Protocol: The P450 gene superfamily is involved in the metabolism and clearance of xenobiotics. This assay used various human CYP P450 isozymes to measure the dealkylation of various pro-luciferin substrates to luciferin. The luciferin is then measured by luminescence after the addition of a luciferase detection reagent. […] Inhibitors and some substrates limit the production of luciferin, and decrease measured luminescence. […] 8, Detection, 1 sec, ViewLux luminescent read […]
In all, about 16,000 compounds went through this assay and about 5,700 (36%) were called active. Not shown: some 24% with an inconclusive outcome. The call rests on the fitted dose curve; in most records, active means well fitted curve in the direction sought with a large enough effect; inconclusive means small, poorly fitted or top-dose-only effect, or effect the other way; inactive means no such curve, though single readings can be large or run the other way. The list shows a part of the results.
# valid calls are active, inactive; nothing else

Input line: Please share the test call associated with Cc1cnc(CNc2ncncc2-c2ccoc2)cn1 .
Output line: active

Input line: Please share the test call associated with CN1CCN(c2ncc3nc(-c4ccc(Cl)cc4)c(=O)n(Cc4cccs4)c3n2)CC1 .
Output line: active

Input line: Please share the test call associated with CC(=O)Nc1ccc(S(=O)(=O)N2CCC(N(C)CCC(C)C)CC2)cc1 .
Output line: inactive

Input line: Please share the test call associated with Cc1ccc2[nH]c3c(N4CCc5ccccc5C4)ncnc3c2c1 .
Output line: active

----------
# targetEntity: Cytochrome P450 1A2 (Homo sapiens) (UniProt P05177)
# methodDescription: Cytochrome panel assay with activity outcomes; as to activity, negative = inhibition: % is scaled to controls: 0 for no effect and ±100 for the full control effect
# conditionLabel: recombinant CYP, pro-luciferin dealkylation, luminescence, p450-cyp1a2; series mostly up to 57.1 µM
# Protocol: The P450 gene superfamily is involved in the metabolism and clearance of xenobiotics. This assay used various human CYP P450 isozymes to measure the dealkylation of various pro-luciferin substrates to luciferin. The luciferin is then measured by luminescence after the addition of a luciferase detection reagent. […] Inhibitors and some substrates limit the production of luciferin, and decrease measured luminescence. […] 8, Detection, 1 sec, ViewLux luminescent read […]
Hit rate of the full screen: of about 16,000 compounds, about 5,700 (36%) were called active. Another 24% or so got no clear call; they are omitted. Some of the results follow.
recordedEndpoint: activity, negative = inhibition

Consider the following illustrative entries.
itemsmiles=C[C@@H]1/C=C\CC(=O)OC[C@H](C)C(=O)N[C@@H](Cc2ccccc2)C(=O)OC1 recordedendpoint="activity, negative = inhibition" resultvalue="-0.511% [at 11.4 µM] (inactive)"
itemsmiles=CC(C)(C)c1ccc(OCC(=O)O)c(Cl)c1 recordedendpoint="activity, negative = inhibition" resultvalue="-16.2% [at 11.4 µM] (inactive)"
itemsmiles=c1ccc2c(CC3NCCN3)cccc2c1 recordedendpoint="activity, negative = inhibition" resultvalue="-7.37% [at 11.4 µM] (inactive)"
itemsmiles=Nc1ncnc2nc(N3CCN(CCO)CC3)[nH]c12 recordedendpoint="activity, negative = inhibition" resultvalue="-1.17% [at 2.29 µM] (inactive)"
itemsmiles=FC(F)(F)c1nc(SCc2ccc(Cl)cc2)n[nH]1 recordedendpoint="activity, negative = inhibition" resultvalue="-18.8% [at 2.29 µM] (inactive)"

Input line: Please give measured activity, negative = inhibition of the following entry: CC(C)(C)N1C(=O)[C@H]2[C@H]3[C@H](O)[C@H](O)C/C(=N/OC[C@@H](O)COCc4ccco4)[C@@H]3CC[C@@H]2C1=O
Output line: 4.56% [at 11.4 µM] (inactive)

Input line: Please give measured activity, negative = inhibition of the following entry: C=CC[C@@H]1C=C[C@H](O/N=C\[C@@H](C)[C@H](OCc2ccccc2)C(C)C)[C@H](CO)O1
Output line: 9.01% [at 11.4 µM] (inactive)

Input line: Please give measured activity, negative = inhibition of the following entry: C[C@@H]1CN2[C@H](c3ccc(Br)cc3)[C@H](C)CC[C@H]2C(=O)O1
Output line: -6.13% [at 11.4 µM] (inactive)

Input line: Please give measured activity, negative = inhibition of the following entry: O=S(=O)(c1ccc(Br)cc1)N1CCN(S(=O)(=O)c2ccc(Br)cc2)CC1
Output line: -11.2% [at 11.4 µM] (inactive)

Input line: Please give measured activity, negative = inhibition of the following entry: C#CCOCCCC(=O)O
Output line: -1.25% [at 11.4 µM] (inactive)

----------
# targetEntity: Cytochrome P450 1A2 (Homo sapiens) (UniProt P05177)
# methodDescription: Cytochrome panel assay with activity outcomes
# conditionLabel: recombinant CYP, pro-luciferin dealkylation, luminescence, p450-cyp1a2; series mostly up to 57.1 µM
# Protocol: The P450 gene superfamily is involved in the metabolism and clearance of xenobiotics. This assay used various human CYP P450 isozymes to measure the dealkylation of various pro-luciferin substrates to luciferin. The luciferin is then measured by luminescence after the addition of a luciferase detection reagent. […] Inhibitors and some substrates limit the production of luciferin, and decrease measured luminescence. […] 8, Detection, 1 sec, ViewLux luminescent read […]
Among all 16,000 compounds or so, about 5,700 (36%) were called active. About 24% were inconclusive and are not listed. The list shows a part of the results.
recordedEndpoint: AC50

itemsmiles=O=S(=O)(/N=C(/Nc1ccccn1)c1ccccc1)c1ccc(Cl)cc1 resultvalue="14.1 µM (active)"
itemsmiles=O=S(=O)(/N=C(\Sc1ccccc1)c1ccccc1)c1ccc(Cl)cc1 resultvalue="8.91 µM (active)"
itemsmiles=COc1cccc2c1C(=O)c1c(O)c3c(c(O)c1C2=O)C[C@](O)(C(=O)CO)C[C@H]3O[C@@H]1C[C@H](N)[C@H](O)[C@H](C)O1 resultvalue=inactive
itemsmiles=COC(=O)c1cccc(C(=O)Nc2ccc(C)cc2)n1 resultvalue="1 µM (active)"
itemsmiles=COc1ccccc1N/C(=N/S(=O)(=O)c1ccc(C)cc1)c1ccc(Cl)cc1 resultvalue=inactive

Attention now shifts to the item below.
Input line: Please give measured AC50 of the following entry: Nc1nc2c(ncn2COC(CO)CO)c(=O)[nH]1
Output line: inactive

----------
# targetEntity: Cytochrome P450 1A2 (Homo sapiens) (UniProt P05177)
# methodDescription: Cytochrome panel assay with activity outcomes
# conditionLabel: recombinant CYP, pro-luciferin dealkylation, luminescence, p450-cyp1a2; series mostly up to 57.1 µM
Among all 16,000 compounds or so, about 5,700 (36%) were called active. About 24% were inconclusive and are not listed. The list shows a part of the results.
recordedEndpoint: AC50

Consider the following illustrative entries.
molecule=NC(=S)NCCC[C@@H](N)C(=O)O resultvalue=inactive
molecule="CO[C@]1(NC(=O)C2SC(=C(C(N)=O)C(=O)O)S2)C(=O)N2C(C(=O)O)=C(CSc3nnnn3C)CS[C@H]21 (some centres undefined)" resultvalue=inactive
molecule=O=C(c1cccc(F)c1)N1CCC[C@@]2(CCN(c3ccccc3)C2)C1 resultvalue=inactive
molecule=CCOc1ccc(N2C(=O)CS/C2=N/NC(=O)COc2ccc3ccccc3c2)cc1 resultvalue="14.1 µM (active)"
molecule=CCOc1cc(CNCCCN2CCOCC2)cc(Br)c1OCC(=O)Nc1cccc(C(F)(F)F)c1 resultvalue=inactive
molecule=COc1cc2ccc([C@H](C)NCC#N)cc2cc1OC resultvalue="0.501 µM (active)"

Input line: Please give measured AC50 of the following entry: CC(C)NC(=O)/C(=N\O)c1ccccc1
Output line: inactive

Input line: Please give measured AC50 of the following entry: Cn1c(C(=O)NCC2CCCO2)cc2c(=O)n3ccccc3nc21 (centres undefined)
Output line: 2.24 µM (active)

Input line: Please give measured AC50 of the following entry: Cc1ccc(-n2c(O)cnc2Nc2nc(C)cc(C)n2)cc1
Output line: 5.01 µM (active)
